Data credit: paper PMC6053351

Biological target: T1, RBBP4, full-length, wild type (UniProt Q09028 1-425)
T1 construct: RBBP4 (also known as RbAp48), full-length; also called RbAp48; apo RBBP4
T1 sequence (Q09028 whole entry): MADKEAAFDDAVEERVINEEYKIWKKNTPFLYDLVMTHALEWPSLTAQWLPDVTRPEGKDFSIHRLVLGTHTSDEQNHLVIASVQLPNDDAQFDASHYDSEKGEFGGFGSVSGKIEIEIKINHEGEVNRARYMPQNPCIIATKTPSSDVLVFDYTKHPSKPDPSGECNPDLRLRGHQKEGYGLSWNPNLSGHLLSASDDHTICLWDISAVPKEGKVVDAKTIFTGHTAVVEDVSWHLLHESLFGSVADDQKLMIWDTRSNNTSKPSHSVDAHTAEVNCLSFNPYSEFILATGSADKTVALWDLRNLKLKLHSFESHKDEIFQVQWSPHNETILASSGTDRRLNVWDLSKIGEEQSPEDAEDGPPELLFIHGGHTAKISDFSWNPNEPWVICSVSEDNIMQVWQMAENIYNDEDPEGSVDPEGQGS
Assay: ITC; AEBP2_(379–390) peptide titrated into RBBP4; one-site binding model, Origin 7
Conditions: both partners purified

>  <Binder>
KRRKLKNKRRRS (peptide, UniProt Q6ZN18-1 379-390, looked up, AEBP2, human, RRK-rich motif, residues Lys379–Ser390 of Uniprot entry Q6ZN18-1; source: synthetic peptide) [AEBP2_(379–390) peptide (RRK-rich motif, residues Lys379–Ser390)]

>  <Kd, µM>
7.6

$$$$
